molecular target: PAK1 (Homo sapiens); assay: Additional in vitro PAK1 inhibition assay at ATP 10 uM and 1 mM; assay type: biochemical; conditions: 10 μM ATP; read-out: PAK1 IC50 (10 μM ATP)
Sequence (Q13153 whole entry): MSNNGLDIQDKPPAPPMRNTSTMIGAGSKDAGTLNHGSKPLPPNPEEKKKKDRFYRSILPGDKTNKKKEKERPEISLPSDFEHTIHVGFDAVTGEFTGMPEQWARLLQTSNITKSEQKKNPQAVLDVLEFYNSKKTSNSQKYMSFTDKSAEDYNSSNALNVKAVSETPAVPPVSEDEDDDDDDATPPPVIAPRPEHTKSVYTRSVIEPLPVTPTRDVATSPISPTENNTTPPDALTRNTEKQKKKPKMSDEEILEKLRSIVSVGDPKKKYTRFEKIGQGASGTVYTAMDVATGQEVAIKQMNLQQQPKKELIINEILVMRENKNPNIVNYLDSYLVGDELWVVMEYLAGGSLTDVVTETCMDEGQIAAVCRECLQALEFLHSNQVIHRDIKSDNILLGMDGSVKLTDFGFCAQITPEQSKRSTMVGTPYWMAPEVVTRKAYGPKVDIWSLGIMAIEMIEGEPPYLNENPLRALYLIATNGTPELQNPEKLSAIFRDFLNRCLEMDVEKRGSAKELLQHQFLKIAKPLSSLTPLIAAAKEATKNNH
readout kind: IC50

>  <molecule>
Cc1nc(-c2ccc(-c3cc4cnc(NC5CCOCC5)nc4n(Cc4cccc(OCCN)c4)c3=O)c(Cl)c2)no1 [drawing 344]

>  <IC50>
< 50 nM

$$$$
>  <molecule>
CCn1c(=O)c(-c2ccc(-c3noc(C)n3)cc2Cl)cc2cnc(NCc3ccccn3)nc21

>  <IC50>
500 to 5000 nM

$$$$

input: I'd like to know its IC50. The molecule in question is Cc1nc(-c2ccc(-c3cc4cnc(N[C@H]5C[C@@H]5C)nc4n(CC4CCNCC4)c3=O)c(Cl)c2)no1
output: < 50 nM

input: Would you kindly share the measured IC50 for Cc1nc(-c2ccc(-c3cc4cnc(NC5CCOCC5)nc4n(CC(=O)NCc4ccncc4)c3=O)c(Cl)c2)no1 [drawing 348] ?
output: 50 to 500 nM
